src = patent US20260327191A1

study_target: human GSK3α (Homo sapiens, UniProt P49840)
Construct: Full length human GSK3α or GSK3B expressed as N-terminal GST fusion proteins; GST (N); purchased Carna Biosciences (Japan); host or cells: baculovirus host
Sequence (P49840 whole entry, the tested form may be a part): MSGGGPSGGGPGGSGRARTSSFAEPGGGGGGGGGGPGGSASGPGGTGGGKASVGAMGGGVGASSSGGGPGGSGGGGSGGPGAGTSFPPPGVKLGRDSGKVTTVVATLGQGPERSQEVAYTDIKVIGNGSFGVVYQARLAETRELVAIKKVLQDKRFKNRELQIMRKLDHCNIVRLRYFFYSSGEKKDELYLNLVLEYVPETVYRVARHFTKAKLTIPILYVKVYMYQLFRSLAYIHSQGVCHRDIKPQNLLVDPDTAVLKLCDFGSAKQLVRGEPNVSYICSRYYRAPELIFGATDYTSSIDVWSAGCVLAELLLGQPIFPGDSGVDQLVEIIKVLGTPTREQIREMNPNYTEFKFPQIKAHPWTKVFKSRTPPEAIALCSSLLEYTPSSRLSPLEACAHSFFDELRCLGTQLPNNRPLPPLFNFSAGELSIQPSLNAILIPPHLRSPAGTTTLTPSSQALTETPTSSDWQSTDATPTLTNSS
experiment_summary: In vitro enzymatic activity assay, GSK3α
Format: biochemical
particulars: 1.0 mM ATP, 1.0 μM peptide substrate, 120 min, 25° C, read-out: Enzyme GSK3α (IC50)
endpoint: IC50 (nM)

Past entries and their recorded results:
CCC[C@@H](N)c1cncc(NC(=O)c2c(N)ncn(-c3c(C)cc(COC)cc3C)c2=O)c1; 5.1
Nc1ncn(-c2c(Cl)cc(C(F)F)cc2Cl)c(=O)c1C(=O)Nc1cccc([C@@H]2CCCN2)c1; 5.4
CN[C@H](C)c1cccc(NC(=O)c2c(N)ncn(-c3c(C)cc(OC)cc3Cl)c2=O)c1 (atropisomer, axis not shown); 7
CCOCc1cc(C)c(-n2cnc(N)c(C(=O)Nc3cncc(C(C)N)c3)c2=O)c(C)c1 (single isomer, unassigned); 13.5
Cc1cc(C#N)cc(Cl)c1-n1cnc(N)c(C(=O)Nc2cccc([C@@H]3CCCCN3)c2)c1=O (single isomer, unassigned); 12.1

P = Cc1cc(Cl)c(-n2cnc(N)c(C(=O)Nc3cncc([C@@H]4CCCN4)c3)c2=O)c(Cl)c1
Q = [2H]C([2H])([2H])NC(C)c1cncc(NC(=O)c2c(N)ncn(-c3c(C)cc(C(F)(F)F)cc3Cl)c2=O)c1 (single isomer, unassigned)
Query: In terms of reported IC50, does P or Q have the smaller number? When you have decided, please share the label of that item.
Result: Q

P = COc1cc(Cl)c(-n2cnc(N)c(C(=O)Nc3cncc(C4CCC(C)N4)c3)c2=O)c(Cl)c1 (single isomer, unassigned) [Example 79]
Q = Cc1cc(C)c(-n2cnc(N)c(C(=O)Nc3cncc(C(C)N)c3)c2=O)c(C)c1 (single isomer, unassigned)
R = CCOc1cc(C)c(-n2cnc(N)c(C(=O)Nc3cncc(C4CCCC(C)N4)c3)c2=O)c(C)c1 (single isomer, unassigned)
Query: Rank descending by IC50. Note for the reader: the ranking is given by listing the labels in the order requested.
Result: R, Q, P
(R: 16.4 nM, Q: 8.8 nM, P: 4.3 nM)

a = COC[C@@H](N)c1cccc(NC(=O)c2c(N)ncn(-c3c(C)cc(C#N)cc3Cl)c2=O)c1 (atropisomer, axis not shown)
b = COc1cc(Cl)c(-n2cnc(N)c(C(=O)Nc3cncc([C@]4(N)CCCOC4)c3)c2=O)c(Cl)c1 (single isomer, unassigned) [Example 188]
Query: In terms of reported IC50, does a or b have the smaller number? When you have decided, please share the label of that item.
Result: a
(a: 4.8 nM, b: 10.4 nM)

====

study_target: GSK3A (Homo sapiens, UniProt P49840)
experiment_summary: NanoBRET cellular target engagement assay, Nanoluc-GSK3A in HEK293 cells
particulars: NanoBRET GSK3α IC50, HEK293 cells, tracer K-8, 2 hours, 37° C
endpoint: IC50 (nM)

Nc1ncn(-c2c(Cl)cc(F)cc2Cl)c(=O)c1C(=O)Nc1cncc([C@@H]2CCCN2)c1; 8.6

P = CNC(C)c1cncc(NC(=O)c2c(N)ncn(-c3c(Cl)cc(Cl)cc3Cl)c2=O)c1 (single isomer, unassigned) [Example 13]
Q = COc1cc(Cl)c(-n2cnc(N)c(C(=O)Nc3cncc(C(N)CC(F)F)c3)c2=O)c(Cl)c1 (single isomer, unassigned) [Example 85]
Query: Hi there! Just curious which has the higher IC50 between P and Q . When you have decided, please share the label of that item.
Result: P
